# Test system: human nose
# EXPERIMENT: Odor intensity evaluation by panelists and Human Recognition Slope Factor (HRSF) calculation in DPG
# RECORDED_CONDITIONS: low hydrophobic media (DPG)
# Protocol: The Human Recognition Slope Factor (HRSF) is a tool in choosing the most efficient high odor value materials to create perfume booster accords. […] The higher the number, the more efficient the material will be. […] The value of Ii and xi are calculated using the following two equations. […] The “best fit values” are the “a, b, and c” values used in all the equations described herein. Once the “a, b, and c” values are determined, proceed with the following equations. […]
Binning of xi (lowest concentration to reach maximum intensity) into classes: lower band = under 0.03, central band = from 0.03 up to 0.06, upper band = 0.06 and over

{"COMPOUND": "CC(=O)C=CC1=C(C)CCCC1(C)C", "LABEL_CLASS": "lower band"}
{"COMPOUND": "CC(=O)OC(C)c1ccccc1 (stereo not shown) [Methyl Phenyl Carbinyl Acetate]", "LABEL_CLASS": "upper band"}
{"COMPOUND": "CC(=O)/C=C/C1C(C)=CCCC1(C)C (stereo not shown)", "LABEL_CLASS": "upper band"}
{"COMPOUND": "CCCCCCCCCC=O", "LABEL_CLASS": "central band"}
{"COMPOUND": "Cc1ccc2c(c1)OCC(=O)CO2", "LABEL_CLASS": "upper band"}
{"COMPOUND": "CC(=O)OC1CCCCC1C(C)(C)C (stereo not shown)", "LABEL_CLASS": "central band"}
{"COMPOUND": "CC(=O)OC1CC2CC1C1CC=CC21 (stereo not shown) [Tricyclo decenyl acetate]", "LABEL_CLASS": "central band"}
{"COMPOUND": "C/C=C\\C(=O)C1C(C)=CCCC1(C)C (stereo not shown)", "LABEL_CLASS": "central band"}
{"COMPOUND": "CCC(C)(O)CCCC(C)C (stereo not shown) [Tetra Hydro linalool]", "LABEL_CLASS": "upper band"}
{"COMPOUND": "CC1(C)CCC[C@]2(C)[C@H]3CCO[C@]3(C)CC[C@@H]12", "LABEL_CLASS": "lower band"}
